- targetUnderTest: hCA XII (Homo sapiens, UniProt O43570)
- Construct: recombinant, tumor-associated transmembrane isoform
- Sequence (O43570 30-289 limits assumed): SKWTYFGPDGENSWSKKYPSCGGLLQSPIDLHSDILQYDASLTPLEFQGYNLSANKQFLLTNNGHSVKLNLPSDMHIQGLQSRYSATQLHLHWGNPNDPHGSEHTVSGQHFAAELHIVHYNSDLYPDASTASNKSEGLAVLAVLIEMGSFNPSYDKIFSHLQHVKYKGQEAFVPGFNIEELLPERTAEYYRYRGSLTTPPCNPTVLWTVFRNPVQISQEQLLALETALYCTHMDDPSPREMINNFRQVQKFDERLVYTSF
- assayText: stopped-flow CO2 hydration assay
attributeMeasured: pKi
Please express pKi as -log10 of the molar concentration.

Measured pKi of NS(=O)(=O)c1ccc(NC(=O)CN2C(=O)/C(=C\c3ccc(OC(F)(F)F)cc3)SC2=S)cc1 : 6.80

Measured pKi of NS(=O)(=O)c1ccc(NC(=O)CN2C(=O)/C(=C\c3ccc(F)c(F)c3)SC2=S)cc1 : 8.02

Measured pKi of NS(=O)(=O)c1ccc(NC(=O)CN2C(=O)/C(=C\c3ccccc3)SC2=S)cc1 : 7.49

Measured pKi of NS(=O)(=O)c1ccc(NC(=O)CN2C(=O)/C(=C3/C(=O)Nc4ccc(C(F)(F)F)cc43)SC2=S)cc1 : 7.42

Measured pKi of NS(=O)(=O)c1ccc(NC(=O)CN2C(=O)/C(=C3/C(=O)Nc4ccccc43)SC2=S)cc1 : 7.25

Measured pKi of COc1cc(/C=C2/SC(=S)N(CC(=O)Nc3ccc(S(N)(=O)=O)cc3)C2=O)cc(OC)c1OC : 7.34

Measured pKi of C=CCOc1ccc(/C=C2/SC(=S)N(CC(=O)Nc3ccc(S(N)(=O)=O)cc3)C2=O)cc1 : 7.17
